ASSAYED_TARGET: T1, hBCMA (human BCMA) (Homo sapiens, UniProt Q02223)
T1 sequence (Q02223 1-184): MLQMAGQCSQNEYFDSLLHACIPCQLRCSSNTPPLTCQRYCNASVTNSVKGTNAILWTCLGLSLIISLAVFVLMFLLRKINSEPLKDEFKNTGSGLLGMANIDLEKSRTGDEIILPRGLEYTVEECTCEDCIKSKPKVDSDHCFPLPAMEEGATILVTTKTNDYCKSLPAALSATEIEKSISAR
PROTOCOL_DETAILS: Kinetics and affinity of hBCMA/human IgG interactions by SPR (Bio-Rad Proteon XPR36)
Format: binding
CONDITION_PARAMETERS: huBCMA, 37° C.
Entries and their ka (1/Ms) huBCMA @ 37° C. values follow.
Give just the number in M⁻¹ s⁻¹; leave the unit off.

MOLECULE	UNITS_OF_MEASURE	ka (1/Ms) huBCMA @ 37° C.
L3.PY/L1.AH/H2.QR: anti-BCMA antibody (antibody, V domains shown) VH: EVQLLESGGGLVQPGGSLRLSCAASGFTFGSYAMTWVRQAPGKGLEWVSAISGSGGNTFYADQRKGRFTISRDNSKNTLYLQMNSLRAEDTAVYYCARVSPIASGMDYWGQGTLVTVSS VL: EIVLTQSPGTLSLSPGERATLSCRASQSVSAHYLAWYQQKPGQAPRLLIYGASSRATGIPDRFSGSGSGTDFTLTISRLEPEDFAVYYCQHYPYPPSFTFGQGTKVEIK	M⁻¹ s⁻¹	3.13e+06

Shift focus to the following entry.
L3.PY/L1.AH/H2.QL: anti-BCMA antibody (antibody, V domains shown) VH: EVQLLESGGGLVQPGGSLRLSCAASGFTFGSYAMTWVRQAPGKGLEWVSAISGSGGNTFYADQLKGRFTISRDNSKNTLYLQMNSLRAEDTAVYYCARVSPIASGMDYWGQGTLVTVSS VL: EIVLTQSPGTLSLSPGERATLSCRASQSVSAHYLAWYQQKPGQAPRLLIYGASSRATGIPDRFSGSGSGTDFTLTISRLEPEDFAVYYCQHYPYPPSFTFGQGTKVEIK has a reported ka (1/Ms) huBCMA @ 37° C. of 3.04e+06
